Molecular target: Melanin-concentrating hormone receptor 1 (Homo sapiens)
Sequence (Q99705 whole entry): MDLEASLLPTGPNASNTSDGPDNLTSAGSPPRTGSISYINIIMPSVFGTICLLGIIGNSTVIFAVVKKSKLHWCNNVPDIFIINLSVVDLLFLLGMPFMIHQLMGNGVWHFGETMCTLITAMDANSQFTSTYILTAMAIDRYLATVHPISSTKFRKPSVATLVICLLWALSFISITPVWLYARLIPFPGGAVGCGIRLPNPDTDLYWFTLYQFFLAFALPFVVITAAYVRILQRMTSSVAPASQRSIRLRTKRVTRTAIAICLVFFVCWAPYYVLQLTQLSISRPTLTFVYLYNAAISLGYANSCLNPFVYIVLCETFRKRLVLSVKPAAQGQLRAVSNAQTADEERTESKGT
Assay: Antagonist activity at human MCHR1 by [35S]GTP-gamma-S binding assay
Assay type: functional
Below, each of the molecules is paired with its reported IC50 value.
Quick note: give the figure in µM, leave out the unit.

CN(C(=O)N1CC[C@H](n2cnc3cc(-c4ccc(Cl)cc4)sc3c2=O)C1)[C@H]1CCNC1 0.029
CN(C(=O)N1CC[C@H](n2cnc3cc(-c4ccc(Cl)cc4)sc3c2=O)C1)[C@H]1CCN(CC2CC2)C1 0.01

stdin: Specify IC50 for `CN(C(=O)N1CC[C@H](n2cnc3cc(-c4ccc(Cl)cc4)sc3c2=O)C1)[C@H]1CCN(CCCc2ccccc2)C1` and stop.
stdout: 0.031

stdin: Please give the documented IC50 of `CN(C(=O)N1CC[C@H](n2cnc3cc(-c4ccc(Cl)cc4)sc3c2=O)C1)[C@H]1CCN(C2CCC(C)(C)CC2)C1`
stdout: 0.01

stdin: Using known records, supply IC50 for `CN(C(=O)N1CC[C@H](n2cnc3cc(-c4ccc(Cl)cc4)sc3c2=O)C1)[C@H]1CCN(CCC2CCOCC2)C1`
stdout: 0.011

stdin: Give the measured IC50 for `CC(C)N1CC[C@H](N(C)C(=O)N2CC[C@H](n3cnc4cc(-c5ccc(Cl)cc5)sc4c3=O)C2)C1`
stdout: 0.023

stdin: Give the measured IC50 for `CN(C(=O)N1CC[C@H](n2cnc3cc(-c4ccc(Cl)cc4)sc3c2=O)C1)[C@H]1CCN(C2CCC2)C1`
stdout: 0.009

stdin: Provide IC50 value for the following molecule: `CN1CC[C@H](N(C)C(=O)N2CC[C@H](n3cnc4cc(-c5ccc(Cl)cc5)sc4c3=O)C2)C1`
stdout: 0.02

---

Biological target: UniProtKB Q99705
Assay: Antagonist activity at human MCHR1 by [35S]GTP-gamma-S binding assay
We begin with a simple list: items and their reported IC50.
The response must be a number in nM with no trailing unit.

CN(C(=O)N1CC[C@H](n2cnc3cc(-c4ccc(Cl)cc4)sc3c2=O)C1)[C@H]1CCN(CC(=O)C(C)(C)C)C1 44
CN(C(=O)N1CC[C@H](n2cnc3cc(-c4ccc(Cl)cc4)sc3c2=O)C1)[C@H]1CCN(C2CCCC2)C1 13
CN(C(=O)N1CC[C@H](n2cnc3cc(-c4ccc(Cl)cc4)sc3c2=O)C1)[C@H]1CCN(CC2CCCCC2)C1 53
CN(C(=O)N1CC[C@H](n2cnc3cc(-c4ccc(Cl)cc4)sc3c2=O)C1)[C@H]1CCN(Cc2ccoc2)C1 15

Now for another entry.
stdin: Report measured IC50; entry is `CN(C(=O)N1CC[C@H](n2cnc3cc(-c4ccc(Cl)cc4)sc3c2=O)C1)[C@H]1CCN(C2CCOCC2)C1`
stdout: 23
